Data origin: patent US12390437B2

# Tested on: IL-6 cytokine output from THP-1s
# MEASUREMENT_DESCRIPTION: THP-1 AlphaLISA IL-6 cytokine assay
# Type: cell-based, human
# CONDITION_PARAMETERS: Homo sapiens; PMA-differentiated THP-1 cells, LPS 24 hr then Nigericin 1 hour
READOUT_NAME: IC50 (µM)

COMPOUND: C=C(CC(=O)OC1CCCCCCC1)C(=O)OC(C)CS(C)(=O)=O (centres unmarked)
IC50 (µM): 2.8

[I] C=C(CC(=O)OCCCCCCCC)C(=O)OC(C)C(=O)N(C)CC(=O)O (centres unmarked)
[II] C=C(CC(=O)OCCCCCCCC)C(=O)OCCN1C(=O)CCC1=O
[III] C=C(CC(=O)OC1CCCCC1)C(=O)OCCC(=O)O
Task: Parameters: sort_field (IC50), sort_dir (desc). Answer by writing out the labels in the requested order.
Result: III, I, II
(III: 100 µM, I: 5.1 µM, II: 2.2 µM)

[I] C=C(CC(=O)OCCCCCCCC)C(=O)OCC1(C#N)CC1
[II] C=C(CC(=O)OCCCCCCCC)C(=O)OCC(=O)N1CCN(C)CC1
Task: Could you please tell me which of these two has the higher IC50: I or II ? Pick one; state its label.
Result: I
(I: 9.5 µM, II: 2.7 µM)

---

Let's look at some compounds and their measured concentration at 6 h.
# MEASUREMENT_DESCRIPTION: Mouse pharmacokinetic study, intravenous dosing
# Type: in vivo
# CONDITION_PARAMETERS: male, C57BL/6, mouse, iv; plasma, 10 mg/kg i.v., time 6 h; read-out: Parent compound concentration following intravenous administration

Task: Retrieve concentration at 6 h measured for C=C(CC(=O)O[C@H](C)CCCCCC)C(=O)OCC(=O)O and print it.
Result: 424 ng/mL

Task: Determine its reported concentration at 6 h: C=C(CC(=O)OC1CC2(CCC2)C1)C(=O)OCC(=O)O
Result: < 0.8 ng/mL

Task: Note down concentration at 6 h recorded for C=C(CC(=O)O[C@@H](C)CCCCCC)C(=O)OCCc1nnn[nH]1
Result: < 1.6 ng/mL

Task: Recall and state the measured concentration at 6 h for C=C(CC(=O)OC1CCCCCCC1)C(=O)OCc1nnn[nH]1 .
Result: 1.4 ng/mL

Task: Quote concentration at 6 h reported for C=C(CC(=O)O[C@@H](C)CCCCCC)C(=O)OCCC(=O)O please.
Result: < 2 ng/mL

Task: Determine from records and report concentration at 6 h for C=C(CC(=O)O[C@@H](C)CCCCCC)C(=O)OCC(=O)O
Result: < 4 ng/mL

Task: Kindly indicate its recorded concentration at 6 h. Item: C=C(CC(=O)OCCCCCC)C(=O)OCC(=O)NS(=O)(=O)N(C)C
Result: < 0.8 ng/mL

Task: Please report the measured concentration at 6 h for C=C(CC(=O)O[C@H](C)CCCCCC)C(=O)OCc1nn[nH]n1
Result: < 4 ng/mL

Task: Indicate its recorded concentration at 6 h; the compound in question is C=C(CC(=O)OC1CCCCCCC1)C(=O)OCCC(=O)O
Result: 1.6 ng/mL

Task: Item C=C(CC(=O)OC1CCCCC1)C(=O)OCc1nnn[nH]1 : provide concentration at 6 h
Result: < 0.8 ng/mL

Task: # return recorded concentration at 6 h for entry C=C(CC(=O)OC1C(C)(C)CC1(C)C)C(=O)OCC(=O)O
Result: < 0.8 ng/mL

Task: Fill in reported concentration at 6 h for this entry: C=C(CC(=O)OC(C)(C)CCCCC)C(=O)OCC(=O)O
Result: < 4 ng/mL

Task: Look up and report measured concentration at 6 h for this entry: C=C(CC(=O)O[C@@H](CC)CCCCC)C(=O)OCC(=O)O
Result: < 4 ng/mL

Task: Using the record for C=C(CC(=O)OC1CCCCCCC1)C(=O)OCC(=O)O , state its measured concentration at 6 h.
Result: 1.7 ng/mL

Task: State its concentration at 6 h for this compound: C=C(CC(=O)O[C@H](CC)CCCCC)C(=O)OCC(=O)O
Result: < 4 ng/mL

Task: Return the recorded concentration at 6 h value; entry: C=C(CC(=O)OC1CCCCCCC1)C(=O)OC(C)c1nnn[nH]1 (stereo not shown)
Result: < 8 ng/mL

---

# MEASUREMENT_DESCRIPTION: Mouse pharmacokinetic study, oral administration
# Format: in vivo
# CONDITION_PARAMETERS: male, C57BL/6, po; mouse plasma, Example 112 dosed orally at 100 mg/kg (Intermediate 8 = metabolite), time 0.5 h; read-out: Example 112 and Intermediate 8 concentrations following oral administration
READOUT_NAME: concentration at 0.5 h (ng/mL)

[P] C=C(CC(=O)O[C@H](C)CCCCCC)C(=O)OCC(=O)O [Example 112]
[Q] C=C(CC(=O)O[C@H](C)CCCCCC)C(=O)O [Intermediate 8]
Task: Select the item whose concentration at 0.5 h value is smaller, choosing between P and Q . Refer to your chosen entry by its label in the reply.
Result: Q

---

Measured Emax of individual entries
# Tested on: NRF2
# MEASUREMENT_DESCRIPTION: NRF2 +/-GSH activation assay (DiscoverX PathHunter NRF2 translocation kit, U2OS cells)
# Assay type: cell-based
# CONDITION_PARAMETERS: Homo sapiens, U2OS; Table 10; assay of Biological Example 5 (NRF2); read-out: Emax
Structures can show the parent of a compound that is named as a salt.
Report the figure in % without appending any unit label.

COMPOUND: COC(=O)/C=C/C(=O)OC [dimethyl fumarate, reference compound]
RESULT_NUMBER: 102

COMPOUND: C=C(CC(=O)OC)C(=O)OC [dimethyl itaconate, reference compound]
RESULT_NUMBER: 137

COMPOUND: C=C(CC(=O)O[C@H](C)CCCCCC)C(=O)OCC(=O)O [Example 112]
RESULT_NUMBER: 173

Task: Specify Emax for C=C(CC(=O)O[C@H](C)CCCCCC)C(=O)O [Intermediate 8] and stop.
Result: 165

---

# MEASUREMENT_DESCRIPTION: Mouse pharmacokinetic study, intravenous dosing
# Format: in vivo
# CONDITION_PARAMETERS: male, C57BL/6, mouse, iv; plasma, 10 mg/kg i.v., time 4 h; read-out: Parent compound concentration following intravenous administration
READOUT_NAME: concentration at 4 h (ng/mL)

CHEMICAL_STRUCTURE: C=C(CC(=O)OC1C(C)(C)CC1(C)C)C(=O)OCC(=O)O
UNIT_LABEL: ng/mL
RESULT_NUMBER: 1.3

[a] C=C(CC(=O)OC1CCCCCCC1)C(=O)OCCC(=O)O
[b] C=C(CC(=O)OC1CCCCCCC1)C(=O)OCC(=O)O
Task: When the recorded concentration at 4 h values are compared, which is smaller: that of a or that of b ? Choose, then provide that item's label.
Result: a
(a: 1.4 ng/mL, b: 2.8 ng/mL)

---

# Test system: IL-1β cytokine output from THP-1s
# MEASUREMENT_DESCRIPTION: THP-1 AlphaLISA IL-1β cytokine assay
# Format: cell-based, human
# CONDITION_PARAMETERS: Homo sapiens, THP-1, PMA-differentiated THP-1 cells, LPS 24 hr then Nigericin 1 hour; read-out: IL-1β (IC50)
READOUT_NAME: IC50 (µM)

Observe how each entry below is paired with its result.
COMPOUND: C=C(CC(=O)OCCCCCCCC)C(=O)OCCS(=O)(=O)c1ccc(C)cc1
IC50 (µM): 1.7
--
COMPOUND: C=C(CC(=O)O[C@H](C)CCCCCC)C(=O)O[C@@H](CC(=O)O)C(F)(F)F
IC50 (µM): 1.7
--
COMPOUND: C=C(CC(=O)OC(CCCC)CCCC)C(=O)OCC(=O)O
IC50 (µM): 7.6
--
COMPOUND: C=C(CC(=O)OCCCCCCCC)C(=O)OCCC#N
IC50 (µM): 9.3
--
COMPOUND: C=C(CC(=O)OC(C)c1cc(Cl)cc(Cl)c1)C(=O)OCC(=O)O (single isomer, unassigned; isomer 1) [Example 198]
IC50 (µM): 22
--
COMPOUND: C=C(CC(=O)OCCCCCCCC)C(=O)OCC(=O)O
IC50 (µM): 7.2
--
COMPOUND: C=C(CC(=O)O[C@@H](C)CCCCCC)C(=O)OCC(=O)NCC(=O)O
IC50 (µM): 15.6
--
COMPOUND: C=C(CC(=O)OCCCCCC)C(=O)OCCS(C)(=O)=O
IC50 (µM): 1.6

[1] C=C(CC(=O)OC1CCCCCCC1)C(=O)OC(CC(=O)O)C(F)(F)F (centres unmarked)
[2] C=C(CC(=O)O[C@H](C)CCCCCC)C(=O)OC(C)CS(C)(=O)=O (some centres unmarked)
Task: API: POST /compare with 1 and 2 ; response names the item with higher IC50. // respond with label for picked entry
Result: 2
